# System: human prostate cancer cells (22RV1)
# procedure-text: scratch assay, migration of 22RV1 cells
# Type: cell-based
# experimental-conditions: 22RV1, 10 μM, 48 hours; control group 25.41 ± 5.01
Ends that are not written are not given here. PEG = not defined here
readout-kind: Migration rate (%) (mean ± SD, P)

In the examples that follow, each entry is paired with its recorded Migration rate (%) (mean ± SD, P).
substance	readout-kind	recorded-measurement
N8: SEQ ID NO: 1 with deletion of positions 15-18 and positions 3, 4 and 11 (YRFLAKENTQD)	Migration rate (%) (mean ± SD, P)	8.75 ± 1.98,** %
N31: SEQ ID NO: 1 with deletion of positions 3, 4, 11 and 15-18 and PEG modification at the carboxyl terminal (YRFLAKENTQD-{PEG}; reading uncertain)	Migration rate (%) (mean ± SD, P)	12.40 ± 2.24,* %
N5: SEQ ID NO: 1 with addition of one amino acid at the carboxyl terminal and deletion of positions 1-3 (RFLAKENVTQDAEDNC)	Migration rate (%) (mean ± SD, P)	10.37 ± 3.53,* %
N12: SEQ ID NO: 1 with deletion of position 18 and positions 1-2 (VRFLAKENVTQDAED)	Migration rate (%) (mean ± SD, P)	6.61 ± 2.83,** %
N9: SEQ ID NO: 1 with deletion of positions 15-18 and PEG modification at the amino terminal ({PEG}-YRVRFLAKENVTQD; reading uncertain)	Migration rate (%) (mean ± SD, P)	14.84 ± 2.96,* %

Need Migration rate (%) (mean ± SD, P) of N30: SEQ ID NO: 1 with deletion of positions 1-5 and 15-18 and PEG modification at the carboxyl terminal (LAKENVTQD-{PEG}; reading uncertain) , thanks.
10.82 ± 2.55,* %

Need Migration rate (%) (mean ± SD, P) of N26: SEQ ID NO: 1 with substitution A15R, addition of one amino acid at the amino terminal and one at the carboxyl terminal (FYRVRFLAKENVTQDREDNC) , thanks.
11.42 ± 2.08,* %

Need Migration rate (%) (mean ± SD, P) of N10: SEQ ID NO: 1 with deletion of positions 15-18 and 1-3 and PEG modification at the carboxyl terminal (RFLAKENVTQD-{PEG}; reading uncertain) , thanks.
13.39 ± 2.3,* %

Need Migration rate (%) (mean ± SD, P) of N54: SEQ ID NO: 1 with A7R, addition of two amino acids and PEG modification at the carboxyl terminal (YRVRFLRKENVTQDAEDNTC-{PEG}; reading uncertain) , thanks.
12.94 ± 2.70,* %

Need Migration rate (%) (mean ± SD, P) of N13: SEQ ID NO: 1 with deletion of positions 15-18 and positions 1-5 (LAKENVTQD) , thanks.
9.77 ± 3.66,* %

Need Migration rate (%) (mean ± SD, P) of N51: SEQ ID NO: 1 with A15R, one amino acid added at each terminal, PEG modification at the amino terminal ({PEG}-FYRVRFLAKENVTQDREDNC; reading uncertain) , thanks.
5.23 ± 2.42,** %

Need Migration rate (%) (mean ± SD, P) of N37: SEQ ID NO: 1 with addition of two amino acids to the carboxyl terminal and PEG modification at the amino terminal ({PEG}-YRVRFLAKENVTQDAEDNCT; reading uncertain) , thanks.
4.86 ± 1.91,** %

###

Parameter Number of cells (mean ± SD, P), migrated cells: see the listing below.
# System: human liver adenocarcinoma cells (SK-HEP-1)
# procedure-text: transwell migration assay, SK-HEP-1 cells
# Type: cell-based
# experimental-conditions: SK-HEP-1 transwell migration, 10 μM, 24 hours; control group 1 782 ± 108, control group 2 768 ± 86
Ends that are not written are not given here. PEG = not defined here

In the examples that follow, each entry is paired with its recorded Number of cells (mean ± SD, P), migrated cells.
substance	recorded-measurement
N17: SEQ ID NO: 1 with addition of two amino acids to the carboxyl terminal (YRVRFLAKENVTQDAEDNCT)	50 ± 5,****
N8: SEQ ID NO: 1 with deletion of positions 15-18 and positions 3, 4 and 11 (YRFLAKENTQD)	139 ± 13,****
N43: SEQ ID NO: 1 with addition of one amino acid at the amino terminal, deletion of position 18, PEG at the carboxyl terminal (RYRVRFLAKENVTQDAED-{PEG}; reading uncertain)	157 ± 29,****
N51: SEQ ID NO: 1 with A15R, one amino acid added at each terminal, PEG modification at the amino terminal ({PEG}-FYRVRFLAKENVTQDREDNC; reading uncertain)	306 ± 46,***

Need Number of cells (mean ± SD, P), migrated cells of N30: SEQ ID NO: 1 with deletion of positions 1-5 and 15-18 and PEG modification at the carboxyl terminal (LAKENVTQD-{PEG}; reading uncertain) , thanks.
156 ± 22,****
